System: Fibroblast
test_description: Multiplex assay against human fibroblast
Assay type: toxicity, cell-based
stated_conditions: 48 h, 1 µM, compound concentration 1 uM, replicate 2
Population Healthy Nuclei (%) values for the compounds below.
Reply numerically in %, unit not repeated.

Query (compound): `CC(C)(O)C(=O)N1CCN(c2ccc(C(F)(F)F)c(C3=C(c4c[nH]c5ccccc45)C(=O)NC3=O)c2)CC1` ; field requested: Population Healthy Nuclei (%)
37

Query (compound): COc1cc2nc(N3CCN(C(=O)c4ccco4)CC3)nc(N)c2cc1OC.Cl [PRAZOSIN HYDROCHLORIDE] ; field requested: Population Healthy Nuclei (%)
56

Query (compound): COCCCN1CCC(NC(=O)c2cc(Cl)c(N)c3c2OCC3)CC1 [PRUCALOPRIDE] ; field requested: Population Healthy Nuclei (%)
49

Query (compound): Cl.Cl.OCCOCCN1CCN(C(c2ccccc2)c2ccc(Cl)cc2)CC1 (centres undefined) [HYDROXYZINE HYDROCHLORIDE] ; field requested: Population Healthy Nuclei (%)
56

Query (compound): Cc1ccc(OCC(O)C(C)NC(C)C)c2c1CCC2.Cl (centres undefined) ; field requested: Population Healthy Nuclei (%)
42

Query (compound): `CCc1nn2c(C)cc(C)nc2c1Cc1ccc(-c2nnc(C3CCNCC3)o2)cc1` ; field requested: Population Healthy Nuclei (%)
54

Query (compound): `COc1cc(C(=O)N2CC[C@@H](O)[C@@H](N)C2)cc2nc(-c3cc4ccccc4n3CC3CC3)n(C)c12.Cl` ; field requested: Population Healthy Nuclei (%)
41

Query (compound): `C[C@@H]1CC(=O)Nc2cccc(-c3ccc4c(c3)c(-c3cnn(C)c3)nn4C)c2N1` ; field requested: Population Healthy Nuclei (%)
50

Query (compound): `Cc1c(Cc2ccc3ccccc3n2)c2cc(F)ccc2n1CC(=O)O` ; field requested: Population Healthy Nuclei (%)
48
